For each entry below, report its normalized growth value.
Procedure text: chemical genetic growth profiling, strain panel (AID 1159580);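 note: tested at 20 µM; growth read once vehicle control cultures reached saturation at 30 °C; 1 = growth at the plate median or of vehicle wells; lower values mean less growth of the strain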
Measurement context: S. cerevisiae deletion strains, growth OD, locus YLR258W, strain gsy2, active compounds read low
The whole screen tested about 5,500 compounds, of which about 2,000 (36%) were called active. Another 18% or so got no clear call; they are omitted. This is one part of the list.
Numbers only.

In the examples that follow, each entry is paired with its recorded normalized growth.
Compound	normalized growth
NCCSSCCN	0.996
Oc1cc(Cl)ccc1Oc1ccc(Cl)cc1Cl	0.0574
CN[C@@H](C)[C@@H](O)c1ccccc1	0.981
CCOC(=O)C(=O)C1(C(=O)OCC)Oc2cc(OC)cc(OC)c2C(=O)C1c1ccccc1 (configuration not stated)	0.959
COc1ccc2c(c1)OCc1c-2oc2cc(OC)ccc12	0.895

State the recorded normalized growth for every item in the following list.
1. COc1ccc2c(C)cc(=O)oc2c1
2. NCC1CCC(C(=O)O)CC1 (configuration not stated)
3. CC1=C(/C=C/C(C)=C/C=C/C(C)=C/C=C/C=C(C)/C=C/C=C(C)/C=C/C(=O)[C@]2(C)C[C@@H](O)CC2(C)C)C(C)(C)C[C@H](O)C1
4. CC(CCc1ccccc1)NC(C)C(O)c1ccc(O)cc1 (configuration not stated)

Output:
0.972
0.999
1.02
1

Your task in this section: give normalized growth for each listed record.
1. CCCCCCCCNC(C)C(O)c1ccc(SC(C)C)cc1 (configuration not stated)
2. CC(=O)OCC(=O)[C@H]1CCC2C3CCC4=CC(=O)CC[C@]4(C)C3CC[C@@]21C (some centres not stated)
3. CN1CCc2cc3c(cc2[C@H]1C1OC(=O)c2c1ccc1c2OCO1)OCO3 (some centres not stated)

Output:
1. 0.0584
2. 0.958
3. 0.988
